target: CK2A1 (CK2α/β) (Homo sapiens, UniProt P68400); assay: CK2 kinase assay, CK2A1 (CK2α/β); type: biochemical; details: Table A; read-out: CK2A1 (CK2α/β) (IC50)
Sequence (P68400 whole entry, species assumed): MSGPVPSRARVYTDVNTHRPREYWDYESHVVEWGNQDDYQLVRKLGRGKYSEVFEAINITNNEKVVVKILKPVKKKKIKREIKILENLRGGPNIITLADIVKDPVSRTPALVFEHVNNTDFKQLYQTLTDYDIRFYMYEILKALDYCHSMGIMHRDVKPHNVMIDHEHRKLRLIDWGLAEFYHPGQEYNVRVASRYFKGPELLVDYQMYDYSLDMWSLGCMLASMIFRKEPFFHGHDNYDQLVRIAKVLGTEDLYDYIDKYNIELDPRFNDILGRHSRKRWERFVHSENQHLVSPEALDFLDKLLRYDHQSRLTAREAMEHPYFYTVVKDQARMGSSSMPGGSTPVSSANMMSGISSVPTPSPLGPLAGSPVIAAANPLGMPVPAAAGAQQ
Sequence (P67870 whole entry partner, species assumed): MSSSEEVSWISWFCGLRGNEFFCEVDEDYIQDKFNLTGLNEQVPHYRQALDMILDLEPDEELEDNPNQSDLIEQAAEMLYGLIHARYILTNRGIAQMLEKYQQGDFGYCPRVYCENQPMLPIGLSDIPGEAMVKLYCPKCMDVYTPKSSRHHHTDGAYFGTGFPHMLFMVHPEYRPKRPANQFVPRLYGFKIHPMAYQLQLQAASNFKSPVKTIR
pIC50: −log10 of the molar value. Structures can show the parent of a compound that is named as a salt.
MEASURED METRIC: pIC50

INSERT INTO results (compound, measured_metric, endpoint_result) VALUES
  ('CC(=O)N1CC2(CCN(c3cc(C#N)cc(Nc4nc(NC5CC5)c5ncc(C#N)n5n4)c3Cl)CC2)C1 [Example 793]', 'pIC50', 9.09),
  ('CCNc1nc(Nc2cc(C#N)cc(C3CNC3)c2Cl)nn2c(C#N)cnc12 [Example 367]', 'pIC50', 8.93),
  ('N#Cc1cc(Nc2nc(NC3CC3)c3ncc(C#N)n3n2)c(Cl)c(N2CC[C@H](N)[C@H](F)C2)c1 [Example 283, HCl]', 'pIC50', 9.10),
  ('CC(=O)NCC(=O)N1CCN(c2cc(C#N)cc(Nc3nc(NC4CC4)c4ncc(C#N)n4n3)c2Cl)CC1 [Example 76]', 'pIC50', 9.12),
  ('N#Cc1cc(Nc2nc(NC3CC3)c3ncc(C#N)n3n2)c(Cl)c(C2(O)CCN(C3COC3)C2)c1 (stereo not drawn) [Example 652]', 'pIC50', 9.08),
  ('CCNc1nc(Nc2cc(C#N)cc(N3CC(C)[C@H](NC(=O)OC)C3)c2Cl)nn2c(C#N)cnc12 (stereo in doubt) [Example 336]', 'pIC50', 9.13),
  ('COC(=O)N(C)[C@@H]1CCN(c2cc(C#N)cc(Nc3nc(NC4CC4)c4ncc(C#N)n4n3)c2Cl)C[C@H]1O (racemic) [Example 187]', 'pIC50', 9.03),
  ('N#CCNC1CCN(c2cc(C#N)cc(Nc3nc(NC4CC4)c4ncc(C#N)n4n3)c2Cl)CC1 [Example 141]', 'pIC50', 9.17);

A. CNC(=O)CN1CCC(c2cc(C#N)cc(Nc3nc(NC4CC4)c4ncc(C#N)n4n3)c2Cl)CC1 [Example 642]
B. CC(c1cc(C#N)cc(Nc2nc(NC3CC3)c3ncc(C#N)n3n2)c1Cl)N1CCNC(=O)C1 (racemic) [Example 679]
Query: Which one would you say has the larger pIC50 value: A , or B ? Indicate which entry you chose by stating its label.
Response: A

a. N#CCC(=O)N1CCC(c2cc(C#N)cc(Nc3nc(NC4CC4)c4ncc(C#N)n4n3)c2Cl)CC1 [Example 230]
b. N#Cc1cc(Nc2nc(NC3CC3)c3ncc(C#N)n3n2)c(Cl)c(N2CCC(NC3COC3)CC2)c1 [Example 110]
Query: Which one would you say has the larger pIC50 value: a , or b ? Indicate which entry you chose by stating its label.
Response: b
(b: 9.24, a: 8.98)
